Reference for the values: PubChem BioAssay

# assayText: budding yeast growth changes without added modifier – OD600, strain BY4716, 24 h, basal condition, primary screen (AID 1173)
# measurementContext: S. cerevisiae BY4716 growth, OD600, 24 h; higher = more signal, called active from +8 up or from −8 down
Record form. Attribute: z-score. Fill in for each entry.
Numbers only.

# example entries with known answers
{"compound": "O=C1NC(=O)C2C1C=CC(C(O)c1cccs1)N2Nc1ccccn1 (stereo unspecified)", "reportedValue": 0.0408}
{"compound": "COC(=O)[C@@]1(Cc2ccc(F)cc2)[C@H]2c3cc(C(=O)N(C)C)n(CCCNc4ccc(C(F)(F)F)cc4Cl)c3C[C@H]2CN1C(=O)c1ccccc1", "reportedValue": 1.28}
{"compound": "O=C1OCC=C[C@H]2OC34C=CCN(Cc5ccccc5)C(=O)[C@H]3N(CCCO)C(=O)[C@@H]4[C@@H]12 (stereo partly specified)", "reportedValue": -0.616}
{"compound": "CCCNC(=O)[C@@]1(C)c2ccccc2C(=O)N(Cc2ccc(OC(F)(F)F)cc2)[C@H]1c1ccc(CO)cc1", "reportedValue": -0.0169}
{"compound": "[N-]=[N+]=NCc1ccccc1[C@@H]1OC(c2ccc(OCCCO)cc2)=N[C@]1(Cc1ccccc1)C(=O)O", "reportedValue": -3.03}
{"compound": "O=C1O[C@@H](c2ccccc2)[C@@H](c2ccccc2)N2[C@@H](c3ccccc3OCCO)[C@]3(C(=O)Nc4ccc(C#CC5(O)CCCCCC5)cc43)[C@@H](C(=O)NC[C@H](O)c3ccccc3)[C@H]12", "reportedValue": 0.934}
{"compound": "Cc1ccc(N2C(=O)c3ccccc3[C@](C)(C(=O)NCCN3CCOCC3)[C@@H]2c2ccc(CO)cc2)nc1", "reportedValue": -0.574}
{"compound": "O=C1C2C=CC(C(O)c3ccccn3)N(Nc3ccccc3F)C2C(=O)N1c1ccccc1 (stereo unspecified)", "reportedValue": -0.166}
{"compound": "O=C(NCC(O)CO)[C@]1(CCS(=O)(=O)c2ccccc2)N=C(c2ccc(OCCCO)cc2)O[C@@H]1c1ccccc1 (stereo partly specified)", "reportedValue": 0.53}
{"compound": "CN1C(=O)C2C=CC(C(O)C(c3ccccc3)c3ccccc3)N(Nc3ccccc3)C2C1=O (stereo unspecified)", "reportedValue": -2.21}

List the reported z-score of each compound below.
1. COc1ccc([Si](C)(C)[C@@H]2[C@@H](CCO)O[C@]3(C(=O)N(Cc4ccc(N5C(=O)c6cccc7cccc5c67)cc4)c4ccccc43)[C@H]2C)cc1
2. Cc1cccc(/C=C/C=O)c1
3. C=CCC(OC(C)=O)[C@@H]1[C@@H](N(Cc2ccc(-c3ccccc3)cc2)C(=O)c2ccc(C)cc2)c2cc(OCCCO)ccc2N1C(=O)Cc1ccc(OC)cc1 (stereo partly specified)

## Output
[0.338, -2.91, -0.397]
